Data provenance is patent USRE50663E1.

- ASSAY METHOD TEXT: logP by HPLC on reversed-phase column (C18), acidic range
- Format: physicochemical
- COND: reversed-phase HPLC column (C18), formic acid in water/acetonitrile
The following molecules are shown together with reported chromatographic logP values.
// no unit, no text: just the number

{"columns": ["MOLECULE", "VALUE"],
 "data": [
  ["CCS(=O)(=O)c1c(-c2nc3cc(C(F)(F)F)cnc3n2C)nc2cc(C3(C#N)CC3)ccn12 [Example I-11]", 2.88]
]}

response.value for CCS(=O)(=O)c1c(C(=O)O)nc2cc(Br)ccn12 (field: chromatographic logP) = 1.52

response.value for CCS(=O)(=O)c1c(-c2nc3cc(C(F)(F)F)cnc3n2C)nc2cc(C(=O)NNC3CC3)ccn12 [Example I-10] (field: chromatographic logP) = 2.41
